Biological target: ENPP1 (Homo sapiens, UniProt P22413)
Sequence (P22413 1-925): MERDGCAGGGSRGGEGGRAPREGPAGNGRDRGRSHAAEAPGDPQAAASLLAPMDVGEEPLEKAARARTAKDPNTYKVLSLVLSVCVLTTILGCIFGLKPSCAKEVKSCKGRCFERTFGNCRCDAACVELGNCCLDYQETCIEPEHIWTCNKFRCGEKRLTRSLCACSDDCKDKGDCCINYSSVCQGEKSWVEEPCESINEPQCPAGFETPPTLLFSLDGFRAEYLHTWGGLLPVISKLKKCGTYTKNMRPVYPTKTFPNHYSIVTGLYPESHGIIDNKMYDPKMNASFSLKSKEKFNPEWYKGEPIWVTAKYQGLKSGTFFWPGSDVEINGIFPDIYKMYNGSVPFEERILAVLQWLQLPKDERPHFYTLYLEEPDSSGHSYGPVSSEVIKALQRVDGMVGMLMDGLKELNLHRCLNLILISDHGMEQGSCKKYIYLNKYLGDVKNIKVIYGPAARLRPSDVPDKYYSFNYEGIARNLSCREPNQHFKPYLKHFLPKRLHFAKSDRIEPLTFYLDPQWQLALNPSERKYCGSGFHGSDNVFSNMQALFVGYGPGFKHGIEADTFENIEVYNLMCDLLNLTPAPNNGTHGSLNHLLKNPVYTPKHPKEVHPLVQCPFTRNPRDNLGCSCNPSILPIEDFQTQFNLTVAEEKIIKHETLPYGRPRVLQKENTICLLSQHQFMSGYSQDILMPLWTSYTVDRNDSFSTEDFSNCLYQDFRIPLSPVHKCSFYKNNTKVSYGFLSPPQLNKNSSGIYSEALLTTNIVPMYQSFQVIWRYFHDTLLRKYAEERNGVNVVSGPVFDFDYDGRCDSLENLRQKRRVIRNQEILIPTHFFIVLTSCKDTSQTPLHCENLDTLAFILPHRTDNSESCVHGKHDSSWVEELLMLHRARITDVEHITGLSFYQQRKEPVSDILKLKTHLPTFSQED
Assay: Measurement of pNP-TMP hydrolysis by ENPP1 (enzyme activity assay, absorbance at 405 nm)
Format: biochemical
Conditions: substrate pNP-TMP 500 μM, KM 232 μM; Ki from IC50 by Cheng-Prusoff; read-out: Ki (pNP-TMP)
observed.property: Ki

What value of Ki has been reported for the following molecule? O=c1[nH]cnc2c1c(F)cn2Cc1ccc(P(=O)(O)O)cc1 < 100 nM

Param item: CC(C)c1cc2c(O)nccc2n1Cc1ccc(B(O)O)cc1 < 100 nM

Param item: N#Cc1ccc2c(c1)ncn2Cc1ccc(B(O)O)cc1 < 10 nM

Cited source for all entries: patent US12029744B2
